SUBJECT OF TEST: T1, CD25 on CD4+CD25+ Treg cells isolated from human PBMCs (human, UniProt P01589 22-272)
T1 sequence (looked up): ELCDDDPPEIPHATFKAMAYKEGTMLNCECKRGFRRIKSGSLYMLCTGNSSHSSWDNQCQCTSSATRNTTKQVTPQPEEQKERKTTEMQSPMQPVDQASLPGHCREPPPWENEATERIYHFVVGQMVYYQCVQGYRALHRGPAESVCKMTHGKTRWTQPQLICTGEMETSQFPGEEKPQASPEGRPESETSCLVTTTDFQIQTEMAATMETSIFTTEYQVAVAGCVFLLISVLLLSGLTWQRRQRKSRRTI
ASSAY NAME: cell-based or functional assay
The binders listed here are annotated with their Relative activity (%) compared with 686, killing Tregs in vitro.
REPORTED ENDPOINT: Relative activity (%) compared with 686, killing Tregs in vitro

BINDER	VAL
chimeric antibody 2046-18H1L1 (antibody, human IgG1, kappa, V domains shown, Chimeric, human IgG1/kappa; also called 2046-18ix) VH: DVQLQESGPGLVKPSQSLSLTCTVTGYSITSDYAWNWIRQFPGNKLEWMGYISYSGITIYNPSLKSRISITRDTSKNQFFLQLNSVTTEDTATYYCARWLLQIYYAMDYWGQGTSVTVSS VL: DVVMTQTPLSLPVSLGDQASISCSSSQSLVHSNGNTYLHWYLHKPGQSPKLLIYKVSNRFSGVPDRFSGSGSGTDFTLKISRVEAEDLGVYFCSQSTHVPLTFGAGTKLELKR	410
chimeric antibody 2046-24H2L1 (antibody, human IgG1, kappa, V domains shown, Chimeric, human IgG1/kappa; also called 2046-24ix) VH: DVQLQESGPGLVKPSQSLSLTCTVTGYSITSDYAWNWIRQFPGNKLEWMGYISYGGTTIYNPSLKSRISITRDTSKNQFFLQLNSVTTEDTATYYCARWLLQNYYAMDYWGQGTSVTVSS VL: DVVMTQTPLSLPVSLGDQASISCRSSQSLVHSNGNTYLHWYLQKPGQSPKVLIYKVSNRFSGVPDRFSGSGSGTDFTLKISRVEAEDLGVYFCSQNTHVPLTFGAGTKLELKR	491
